# Measured target: human IKK-β (Homo sapiens, UniProt O14920)
# Sequence (O14920 1-756): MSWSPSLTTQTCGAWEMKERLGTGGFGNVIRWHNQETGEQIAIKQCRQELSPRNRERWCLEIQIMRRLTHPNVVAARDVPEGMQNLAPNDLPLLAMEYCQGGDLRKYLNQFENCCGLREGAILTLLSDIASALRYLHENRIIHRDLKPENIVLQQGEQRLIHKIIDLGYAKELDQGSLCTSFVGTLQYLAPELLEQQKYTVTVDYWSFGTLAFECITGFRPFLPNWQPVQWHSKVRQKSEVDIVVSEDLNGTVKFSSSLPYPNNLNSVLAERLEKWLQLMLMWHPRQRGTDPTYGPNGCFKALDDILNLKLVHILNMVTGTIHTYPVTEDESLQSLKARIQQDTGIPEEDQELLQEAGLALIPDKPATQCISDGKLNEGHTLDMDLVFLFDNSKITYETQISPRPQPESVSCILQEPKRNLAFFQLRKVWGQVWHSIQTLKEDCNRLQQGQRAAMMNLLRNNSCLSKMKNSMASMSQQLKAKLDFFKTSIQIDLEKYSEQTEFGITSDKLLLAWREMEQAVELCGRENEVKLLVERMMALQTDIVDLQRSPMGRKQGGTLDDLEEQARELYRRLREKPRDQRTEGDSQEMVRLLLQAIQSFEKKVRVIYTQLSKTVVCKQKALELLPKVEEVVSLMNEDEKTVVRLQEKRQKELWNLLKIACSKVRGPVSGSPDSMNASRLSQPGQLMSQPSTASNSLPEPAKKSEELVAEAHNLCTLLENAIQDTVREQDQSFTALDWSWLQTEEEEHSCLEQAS
Structures can show the parent of a compound that is named as a salt.
Exercise: state measured IC50 for each of the compounds provided.

# count of solved cases: 3
N#Cc1c(-c2cccc(NC(=O)C3CCC(=O)O3)c2)cc(-c2ncccc2O)nc1N (stereo not shown) [Example 1-20]
2000 to 10000 nM
CS(=O)(=O)Nc1cccc(-c2cc(-c3ccccc3O)nc(N)c2C#N)c1 [Example 1-06]
2000 to 10000 nM
CCn1c(=O)oc2cc(-c3cc(-c4c(O)cccc4OCC4CC4)nc4c3COC(=O)N4)ccc21 [Example 8-2, hydrochloride]
2000 to 10000 nM

Required: IC50, one value per compound below.
1. N#Cc1c(-c2cccc(C(=O)NCCN3CCCCC3)c2)cc(-c2ccccc2O)nc1N [Example 6-1, trifluoroacetate]
2. CC(=O)Nc1nc(-c2ccccc2O)cc(-c2cccc(NC(=O)CCN3CCCCC3)c2)c1C#N [Example 2-06]
3. COCCNCC(=O)Nc1cc(-c2cc(-c3ccccc3O)nc(N)c2C#N)ccc1OCC1CC1 [Example 4-32]
4. COc1ccc(O)c(-c2cc(-c3cccc(NC(=O)C(O)CCC(=O)O)c3)c(C#N)c(N)n2)c1 (stereo not shown) [Example 1-18]
5. N#Cc1c(-c2ccc(Cl)c(NC(=O)C(O)CCC(=O)O)c2)cc(-c2ccccc2O)nc1N (stereo not shown) [Example 1-15]
6. N#Cc1c(-c2ccc(OCC3CC3)c(NC(=O)CN3CCCCC3)c2)cc(-c2ccccc2O)nc1N [Example 4-35]
7. N#Cc1c(-c2ccc(NC(=O)CCN3CCCCC3)cc2)cc(-c2ccccc2O)nc1N [Example 2-05]
8. N#Cc1c(-c2cc(NC(=O)CCN3CCCCC3)ccc2Cl)cc(-c2ccccc2O)nc1N [Example 2-10]

1: 2000 to 10000 nM; 2: > 10000 nM; 3: 2000 to 10000 nM; 4: 2000 to 10000 nM; 5: < 500 nM; 6: > 10000 nM; 7: 500 to 2000 nM; 8: 500 to 2000 nM

Required: IC50, one value per compound below.
1. N#Cc1c(-c2cccc(NC(=O)C(O)CCC(=O)O)c2)cc(-c2ccccc2O)nc1N (stereo not shown) [Example 1-2]
2. N#Cc1c(-c2cccc(NC(=O)CCN3CCCCC3)c2)cc(-c2ncccc2O)nc1N [Example 2-17]
3. COCCNCC(=O)Nc1cc(-c2cc(-c3ccccc3O)nc(N)c2C#N)ccc1N1CCC(NC(=O)C(F)(F)F)C1 (stereo not shown) [Example 4-37]
4. Nc1cc(-c2cccc(NC(=O)CNCC3CC3)c2)cc(-c2ccccc2O)n1 [Example 4-39]
5. N#Cc1c(-c2ccc(N3CCC[C@H]3CO)c(NC(=O)CCN3CCCCC3)c2)cc(-c2ccccc2O)nc1N [Example 3-12]

1. 500 to 2000 nM
2. 500 to 2000 nM
3. < 500 nM
4. 2000 to 10000 nM
5. 500 to 2000 nM

Required: IC50, one value per compound below.
1. N#Cc1c(-c2cccc(O)c2)cc(-c2ccccc2O)nc1N [Example 1-23]
2. CC(=O)Nc1ccc(-c2cc(-c3ccccc3O)nc(N)c2C#N)cc1O [Example 2-16]
3. CCOC(=O)C1CCN(CCC(=O)Nc2cccc(-c3cc(-c4ccccc4O)nc(N)c3C#N)c2)CC1 [Example 4-26]
4. COc1cccc(O)c1-c1cc(-c2cccc(NC(=O)C(O)CCC(=O)O)c2)c(C#N)c(N)n1 (stereo not shown) [Example 1-13]
5. N#Cc1c(-c2cccc(NC(=O)C(O)CCC(=O)O)c2)cc(-c2ncccc2O)nc1N (stereo not shown) [Example 1-22]
6. CCNc1ccc(-c2cc(-c3c(O)cccc3OCC3CC3)nc(N)c2CO)cc1O [Example 8-1, hydrochloride]
7. N#Cc1c(-c2cccc(NC(=O)CCN3CCCCC3)c2)cc(-c2ccccc2O)nc1N [Example 2-1, hydrochloride]

1: < 500 nM; 2: < 500 nM; 3: 500 to 2000 nM; 4: 500 to 2000 nM; 5: 500 to 2000 nM; 6: 500 to 2000 nM; 7: 500 to 2000 nM

Required: IC50, one value per compound below.
1. CCN(CC)c1ccc(-c2cc(-c3ccccc3O)nc(N)c2C#N)cc1NC(=O)CCN1CCCCC1 [Example 3-13]
2. N#Cc1c(-c2cccc(NC(=O)CCN3CCCC4CCCCC43)c2)cc(-c2ccccc2O)nc1N (stereo not shown) [Example 4-15]

2000 to 10000 nM
500 to 2000 nM

====

# Measured target: human IKK-β (Homo sapiens, UniProt O14920)
# Construct: A cDNA fragment encoding human IKK-β open reading frame was generated by PCR; His; made in house; host or cells: Sf21 insect cells (baculovirus); the GST-IκBα substrate was made in E. coli
# Test method notes: IKK-β kinase inhibitory assay
# Assay type: biochemical
# Applied conditions: compounds of about 40 to 90% purity, read-out: In vitro activity grade (invitro, IC50)
pIC50: −log10 of the molar value. Where a name gives a salt, the structure may show the parent alone.
Parameter: pIC50

N#Cc1c(-c2cccc(NC(=O)C3CCC(=O)O3)c2)cc(-c2ccccc2O)nc1N (centres unmarked)
5.70 to 6.30
N#Cc1c(-c2ccc(OCC3CC3)c(NC(=O)CNCC3CC3)c2)cc(-c2ccccc2O)nc1N
< 5.00

Required: pIC50, one value per molecule below.
1. Cc1ccc(O)c(-c2cc(-c3cccc(NC(=O)CCN4CCCCC4)c3)c(C#N)c(N)n2)c1
2. CC(=O)Nc1ccc(-c2cc(-c3ccccc3O)nc(N)c2C#N)cc1OCCN1CCCCC1 [Example 9, ditrifluoroacetate]
3. N#Cc1c(-c2ccc(N3CCOCC3)c(NC(=O)CCN)c2)cc(-c2ccccc2O)nc1N
4. CN(C)c1ccc(-c2cc(-c3ccccc3O)nc(N)c2C#N)cc1NC(=O)CNCC1CC1 [Example 4-1, hydrochloride]
5. N#Cc1c(-c2cccc(NC(=O)CCCC(=O)O)c2)cc(-c2ccccc2O)nc1N
6. N#Cc1c(-c2ccc(N3CCCC3)c(NC(=O)CCN)c2)cc(-c2ccccc2O)nc1N

1. 5.00 to 5.70
2. 5.70 to 6.30
3. 5.70 to 6.30
4. 5.70 to 6.30
5. 5.70 to 6.30
6. > 6.30

====

# System: RANTES production in response to TNF-α from A549 cells
# Test method notes: RANTES production in response to TNF-α from A549 cells
# Assay type: cell-based, human
# Applied conditions: 100 ng/ml TNF-α, 24 hrs, compounds of about 40 to 90% purity, read-out: Cellular activity grade (A549, IC50)
pIC50: −log10 of the molar value.
Parameter: pIC50

N#Cc1c(-c2cccc(N)c2)cc(-c2ccccc2O)nc1N [Example 1-08]
< 5.00
N#Cc1c(-c2cccc(NC(=O)C[C@H](N)C(=O)O)c2)cc(-c2ccccc2O)nc1N [Example 2-02]
< 5.00
CN(C)c1ccc(-c2cc(-c3ccccc3O)nc(N)c2C#N)cc1NC(=O)CCN1CCCCC1 [Example 4-36]
5.00 to 6.00
N#Cc1c(-c2cccc(NC(=O)C3CCC(=O)O3)c2)cc(-c2ccccc2O)nc1N (stereo not drawn) [Example 1-1]
5.00 to 6.00
CC(=O)Nc1ccc(-c2cc(-c3ccccc3O)nc(N)c2CO)cc1O [Example 8-05]
5.00 to 6.00

We next turn to a different compound, shown below.
Endpoint output: pIC50 of N#Cc1c(-c2cccc(NC(=O)C3CCC(=O)O3)c2)cc(-c2ccccc2O)nc1N (stereo not drawn) [Example 1-03] . Value?
< 5.00
